experimental_endpoint: melting point

// below: answered molecules
[[record]]
test_smiles = "Fc1cccc(-c2cc(-c3cccnc3)ncn2)c1"
experimental_endpoint = "melting point"
result_value = "193 to 195 °C"

[[record]]
test_smiles = "Nc1nc(-c2cccnc2)cc(-c2cccc(F)c2)n1"
experimental_endpoint = "melting point"
result_value = "196 to 198 °C"


// sample "COc1ccc(-c2cc(-c3cccnc3)nc(N)n2)cc1" , its melting point was 163 to 165 °C

// sample "Nc1nc(-c2cccnc2)cc(-c2cccc(Br)c2)n1" , its melting point was 169 to 171 °C

// sample "Nc1nc(-c2ccc(Br)cc2)cc(-c2cccnc2)n1" , its melting point was 210 to 211 °C

// sample "COc1ccccc1-c1cc(-c2cccnc2)nc(N)n1" , its melting point was 108 to 110 °C

// sample "COc1ccc(-c2cc(-c3cccnc3)ncn2)cc1" , its melting point was 165 to 167 °C

// sample "Nc1nc(-c2cccnc2)cc(-c2ccccc2Br)n1" , its melting point was 149 to 152 °C

// sample "c1cncc(-c2cc(-c3ccc4c(c3)OCO4)ncn2)c1" , its melting point was 173 to 175 °C

// sample "Nc1nc(-c2cccnc2)cc(-c2cccnc2)n1" , its melting point was 229 to 230 °C

// sample "Nc1nc(-c2cccnc2)cc(-c2ccc3c(c2)OCO3)n1" , its melting point was 236 to 238 °C

// sample "c1cncc(-c2cc(-c3cccnc3)ncn2)c1" , its melting point was 206 to 207 °C

###

Assay: In vitro cytotoxicity with L6 cells, Alamar Blue assay
Assay type: cell-based, rat
Details: L6 rat skeletal myoblasts, 70 h incubation
experimental_endpoint: CC50 at 70 h (µM)
# number only, unit µM dropped from output

// sample COc1cc([C@@H]2c3cc4c(cc3[C@H](O)[C@H]3COC(=O)[C@H]23)OCO4)cc(OC)c1OC [Podophyllotoxin, reference compound] , its CC50 at 70 h was 0.019

###

Experiment: In vitro cytotoxicity with L6 cells, Alamar Blue assay
Type: cell-based, rat
Settings: L6 cells (rat skeletal myoblasts); L6 rat skeletal myoblasts, 70 h incubation
Item-by-item account of CC50 at 70 h

[[record]]
molecule = "Nc1nc(-c2cccnc2)cc(-c2ccc3c(c2)OCO3)n1 [Compound 21]"
result_value = "> 100 µM"


Consider the additional molecule presented here.
// sample c1cncc(-c2cc(-c3ccc4c(c3)OCO4)ncn2)c1 [Compound 10] , its CC50 at 70 h was > 100 µM

###

Item-by-item account of melting point

[[record]]
compound = "COc1cccc(-c2cc(-c3cccnc3)nc(N)n2)c1 [Compound 15]"
experimental_endpoint = "melting point"
result_value = "162 to 164 °C"

[[record]]
compound = "COc1ccc(-c2cc(-c3cccnc3)nc(N)n2)cc1OC [Compound 20]"
experimental_endpoint = "melting point"
result_value = "165 to 167 °C"


// sample COc1ccc(-c2cc(-c3cccnc3)ncn2)cc1OC [Compound 9] , its melting point was 131 to 134 °C

// sample COc1ccccc1-c1cc(-c2cccnc2)ncn1 [Compound 3] , its melting point was 102 to 104 °C

// sample Nc1nc(-c2ccccc2)cc(-c2cccnc2)n1 [Compound 11] , its melting point was 172 to 175 °C

// sample Brc1cccc(-c2cc(-c3cccnc3)ncn2)c1 [Compound 6] , its melting point was 162 to 163 °C

// sample c1ccc(-c2cc(-c3cccnc3)ncn2)cc1 [Compound 1, 4-Phenyl-6-(pyridin-3-yl)pyrimidine] , its melting point was 116 to 118 °C

// sample COc1cccc(-c2cc(-c3cccnc3)ncn2)c1 [Compound 5] , its melting point was 124 to 125 °C
